# target system: Mdm2/p53 binding (GST-Mdm2 / His-p53) (Homo sapiens, UniProt Q00987, L33E)
# Construct: Mdm2 partial protein having Mdm2 amino acids at positions 25 to 108
# Sequence (Q00987 25-108 L33E): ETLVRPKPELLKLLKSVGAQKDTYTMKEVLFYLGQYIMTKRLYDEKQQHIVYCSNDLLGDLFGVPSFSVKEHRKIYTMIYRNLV
# assay procedure: Mdm2/p53 binding assay (HTRF, His-p53 and GST-Mdm2)
# experimental parameters: His-p53 (aa 1-132) and GST-Mdm2 (aa 25-108, L33E) 6.25 nM each; 25°C, 1 hour; values given as ranges
endpoint: IC50

Example entries and their recorded answers appear below.
compound | value
CC1(C)CCC2(CC1)N[C@@H](C(=O)N[C@@H]1CC[C@@H](C(=O)N3CCOCC3)OC1)[C@H](c1ccnc(Cl)c1F)[C@]21C(=O)Nc2cc(Cl)ccc21 | 1 to 50 nM
CCNC(=O)[C@H]1C[C@H](NC(=O)[C@@H]2NC3(CCC(C)(C)CC3)[C@@]3(C(=O)Nc4cc(Cl)ccc43)[C@H]2c2ccnc(Cl)c2F)C1 | 1 to 50 nM
CC(O)[C@@H]1CC[C@@H](NC(=O)[C@@H]2NC3(CCC(C)(C)CC3)[C@@]3(C(=O)Nc4cc(Cl)ccc43)C2c2ccnc(Cl)c2)CO1 (single isomer, unassigned) | 1 to 50 nM
CC1(C)CCC2(CC1)N[C@@H](C(=O)N[C@@H]1CC[C@@H](C(N)=O)OC1)[C@H](c1ccnc(Cl)c1F)[C@]21C(=O)Nc2cc(Cl)ccc21 | 1 to 50 nM
NC(=O)[C@H]1C[C@H](NC(=O)[C@@H]2NC3(CC(CF)(CF)C3)[C@@]3(C(=O)Nc4cc(Cl)ccc43)[C@H]2c2cccc(Cl)c2F)C1 | 1 to 50 nM

# lookup: Mdm2/p53 binding (GST-Mdm2 / His-p53) (Homo sapiens, UniProt Q00987, L33E) IC50, key = `CC1(C)CCC2(CC1)N[C@@H](C(=O)N[C@H]1CC[C@](O)(CO)CC1)[C@H](c1ccnc(Cl)c1F)[C@]21C(=O)Nc2cc(Cl)ccc21`
50 to 100 nM

Would you please give the reported IC50 of `CC1(C)CCC2(CC1)N[C@@H](C(=O)N[C@@H]1CC[C@@H](c3n[nH]c(=O)o3)OC1)[C@H](c1ccnc(Cl)c1)[C@]21C(=O)Nc2cc(Cl)ccc21` with Mdm2/p53 binding (GST-Mdm2 / His-p53) (Homo sapiens, UniProt Q00987, L33E)?
1 to 50 nM

// fetch IC50 for `CC1(C)CCC2(CC1)N[C@@H](C(=O)N[C@@H]1CC[C@@H](C(C)(C)O)OC1)[C@H](c1cccc(Cl)c1F)[C@]21C(=O)Nc2cc(Cl)ccc21` ; system: Mdm2/p53 binding (GST-Mdm2 / His-p53) (Homo sapiens, UniProt Q00987, L33E)
1 to 50 nM
